# Protocol Text: AUC (0 to t) in male Sprague-Dawley rat at 10 mg/kg, po measured up to 24 hrs by LC-MS/MS analysis
# Format: ADME, organism-based
# Experimental Context: in vivo
Measurement Kind: AUC(0-t) at 24 h (ng·h/mL)
Provide the reading as a plain figure in ng·h/mL.

Prompt: // lookup AUC(0-t) at 24 h for Cl.O=S(=O)(c1ccccc1)n1ncc2cc(-n3cc(CN[C@@H]4C[C@H]4c4ccc(F)c(F)c4)nn3)ccc21
Response: 280

###

# Protocol Text: Octanol-water partition coefficient, logP of the compound
# Format: physicochemical
Measurement Kind: logP
Hey, just send me the number, nothing else.

Prompt: // lookup logP for Cl.O=S(=O)(c1ccccc1)n1ncc2cc(-n3cc(CN[C@@H]4C[C@H]4c4ccc(F)c(F)c4)nn3)ccc21
Response: 4.2
